Hello, the source for this data is ChEMBL document CHEMBL3045895, in case you need it.

// values below are pIC50; system is Urease (Canavalia ensiformis, UniProt P07374)
Sequence (P07374 whole entry): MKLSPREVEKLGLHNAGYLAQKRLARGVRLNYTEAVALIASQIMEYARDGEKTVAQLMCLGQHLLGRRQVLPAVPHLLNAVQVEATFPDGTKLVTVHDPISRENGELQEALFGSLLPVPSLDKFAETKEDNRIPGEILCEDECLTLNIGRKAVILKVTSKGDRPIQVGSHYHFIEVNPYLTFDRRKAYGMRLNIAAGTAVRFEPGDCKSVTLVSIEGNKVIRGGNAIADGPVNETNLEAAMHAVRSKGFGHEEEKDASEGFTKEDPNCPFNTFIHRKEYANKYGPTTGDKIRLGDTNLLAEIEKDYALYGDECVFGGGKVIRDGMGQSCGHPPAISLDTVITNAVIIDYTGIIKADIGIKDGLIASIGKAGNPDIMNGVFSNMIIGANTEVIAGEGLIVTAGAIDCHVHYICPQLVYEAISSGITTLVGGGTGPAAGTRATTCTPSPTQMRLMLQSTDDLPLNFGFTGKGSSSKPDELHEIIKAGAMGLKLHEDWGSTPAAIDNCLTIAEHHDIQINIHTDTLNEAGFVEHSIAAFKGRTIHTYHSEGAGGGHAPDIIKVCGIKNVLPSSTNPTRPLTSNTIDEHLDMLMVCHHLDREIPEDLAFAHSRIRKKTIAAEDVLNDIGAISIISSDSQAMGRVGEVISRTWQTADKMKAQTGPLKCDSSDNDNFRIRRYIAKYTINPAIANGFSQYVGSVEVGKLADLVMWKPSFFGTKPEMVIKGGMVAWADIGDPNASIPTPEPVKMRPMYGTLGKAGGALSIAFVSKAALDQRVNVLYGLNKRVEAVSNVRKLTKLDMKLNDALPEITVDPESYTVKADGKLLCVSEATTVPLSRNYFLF
pIC50: −log10 of the molar value.

| compound | pIC50 |
| --- | --- |
| Cc1cc(C)n(CN(Cn2nc(C)cc2C)C2CCCCC2)n1 | 4.36 |
| Cc1cc(C)n(CO)n1 | 4.03 |
| Cc1cc(C)n(CN(CCO)Cn2nc(C)cc2C)n1 | 4.35 |

====

# target-entity: Beta-glucuronidase (Homo sapiens, UniProt P08236)
# Sequence (P08236 whole entry): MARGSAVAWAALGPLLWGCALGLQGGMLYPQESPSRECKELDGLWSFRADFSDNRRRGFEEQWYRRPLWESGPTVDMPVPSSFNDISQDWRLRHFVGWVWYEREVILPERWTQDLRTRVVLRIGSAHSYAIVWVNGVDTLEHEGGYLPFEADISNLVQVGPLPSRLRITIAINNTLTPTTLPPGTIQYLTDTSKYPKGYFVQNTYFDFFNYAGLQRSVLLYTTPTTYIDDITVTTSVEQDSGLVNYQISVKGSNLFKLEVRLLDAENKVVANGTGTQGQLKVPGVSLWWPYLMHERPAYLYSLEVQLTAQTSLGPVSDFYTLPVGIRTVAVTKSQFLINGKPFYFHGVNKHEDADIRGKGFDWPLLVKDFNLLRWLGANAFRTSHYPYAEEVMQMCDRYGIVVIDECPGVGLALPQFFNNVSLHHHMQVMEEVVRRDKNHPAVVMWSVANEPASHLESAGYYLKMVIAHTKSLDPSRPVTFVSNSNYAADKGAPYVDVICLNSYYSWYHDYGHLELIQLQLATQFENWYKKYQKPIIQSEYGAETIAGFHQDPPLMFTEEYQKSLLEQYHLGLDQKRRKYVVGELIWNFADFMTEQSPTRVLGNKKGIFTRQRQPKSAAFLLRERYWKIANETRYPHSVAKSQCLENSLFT

| compound | target-entity | units-text | IC50 |
| --- | --- | --- | --- |
| Cc1cc(C)n(CN(Cn2nc(C)cc2C)C2CCCCC2)n1 | Beta-glucuronidase (Homo sapiens, UniProt P08236) | µM | 457 |

====

# target-entity: Acetylcholinesterase (Homo sapiens) (UniProt P22303)
# Sequence (P22303 whole entry): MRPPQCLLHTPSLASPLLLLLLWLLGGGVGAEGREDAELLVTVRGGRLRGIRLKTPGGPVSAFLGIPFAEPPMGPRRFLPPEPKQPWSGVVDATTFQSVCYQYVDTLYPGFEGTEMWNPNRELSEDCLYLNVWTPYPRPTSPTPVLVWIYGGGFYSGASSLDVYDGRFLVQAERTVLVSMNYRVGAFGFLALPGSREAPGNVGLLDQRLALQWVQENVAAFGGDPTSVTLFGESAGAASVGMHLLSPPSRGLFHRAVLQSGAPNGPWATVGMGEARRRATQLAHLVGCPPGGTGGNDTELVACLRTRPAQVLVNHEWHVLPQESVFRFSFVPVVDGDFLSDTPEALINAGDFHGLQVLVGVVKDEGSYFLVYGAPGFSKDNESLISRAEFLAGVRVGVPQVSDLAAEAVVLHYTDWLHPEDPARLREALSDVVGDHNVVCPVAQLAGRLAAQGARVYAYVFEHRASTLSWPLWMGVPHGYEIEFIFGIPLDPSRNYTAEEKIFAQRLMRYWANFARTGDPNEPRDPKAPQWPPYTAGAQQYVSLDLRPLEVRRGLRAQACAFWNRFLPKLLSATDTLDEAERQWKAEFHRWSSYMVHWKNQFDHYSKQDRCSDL
# test-name: Inhibition of acetylcholinesterase (unknown origin) using acetylthiocholine iodide as substrate at 500 uM incubated for 15 min prior to substrate addition measured for 15 min by spectrophotometric analysis
Activity calls are given as the source filed them. The rule behind the calls is not given here.
metric-name: inhibition

| compound | target-entity | observed-measurement |
| --- | --- | --- |
| Cc1cc(C)n(CN(Cn2nc(C)cc2C)C2CCCCC2)n1 | Acetylcholinesterase (Homo sapiens) (UniProt P22303) | inactive |
| Cc1cc(C)n(CN(CCO)Cn2nc(C)cc2C)n1 | Acetylcholinesterase (Homo sapiens) (UniProt P22303) | inactive |
| Cc1cc(C)n(CO)n1 | Acetylcholinesterase (Homo sapiens) (UniProt P22303) | inactive |
| Cc1cc(CN(CCO)Cc2cc(C)n(C)n2)nn1C | Acetylcholinesterase (Homo sapiens) (UniProt P22303) | inactive |
